tested on: human JAK1; test: In vitro JAK kinase assay (HTRF, phosphorylation of biotinylated peptide), JAK1; format: biochemical; settings: ratio of JAK2 IC50 to JAK1 IC50, 1 mM ATP
Assay Readout: JAK2/JAK1

Query block: I would be grateful if you could share the reported JAK2/JAK1 for "CNS(=O)(=O)C[C@H]1CC[C@H](n2c([C@@H](C)O)nc3cnc4ccsc4c32)CC1" .
Result block: >5

Query block: I would be grateful if you could share the reported JAK2/JAK1 for "C[C@@H](O)c1nc2cnc3ccsc3c2n1[C@H]1CCN(CCCC(F)(F)F)C1" .
Result block: >10

Query block: I would be grateful if you could share the reported JAK2/JAK1 for "C[C@@H](O)c1nc2cnc3ccsc3c2n1[C@H]1CCCN(C(=O)CCc2cn[nH]c2)C1" .
Result block: >10

Query block: I would be grateful if you could share the reported JAK2/JAK1 for "C[C@@H](O)c1nc2cnc3ccsc3c2n1[C@H]1CC[C@@H](CC#N)OC1" .
Result block: >10
